- assayedTarget: T1, hK1 (human tissue kallikrein 1), recombinant (human, UniProt P06870 25-262)
- T1 construct: Expressed in P. pastoris from KLK1 cDNA and purified; enzymatically active; also called KLK1; Recombinant (Pichia) Kallikrein
- assayComment: SPR, biotinylated hK1 on streptavidin chip; Fab 50 nM after DX-2300 50 nM (competitor DX-2300)
recordedEndpoint: Fab Signal following DX-2300 (R1)
Give the figure only, with no unit attached.

1) M0112-D07 (Fab, V domains shown) VH: EVQLLESGGGLVQPGGSLRLSCAASGFTFSFYSMSWVRQAPGKGLEWVSRIRPSGGRTDYADSVKGRFTISRDNSKNTLYLQMNSLRAEDTAVYYCARDRLYYYGSGSYYYGAFDIWGQGTMVTVSS VL: DIQMTQSPSSLSASVGDRVTITCRASQTIRTYLNWYQQKPGIAPKFLIYDASNLQTGVPSRFSGSGSGTHFTLTISSLQPEDFGTYYCQQSYGGPPTFGRGTKIEIKR = 3

Short answer for M0098-E09 (Fab, V domains shown) VH: EVQLLESGGGLVQPGGSLRLSCAASGFTFSRYGMQWVRQAPGKGLEWVSYIYPSGGGTVYADSVKGRFTISRDNSKNTLYLQMNSLRAEDTAVYYCARRVAVAGSWYYYYYGMDVWGQGTTVTVSS VL: DIQMTQSPSSVSASVGDSVTISCWTIYDISSWLAWYQQRPGQAPKLLIYAASRLATGVPSRFRGSGSGTDFTLTITNLQPEDVATYYCQQTKDFPLTFGGGTRVDLKR : Fab Signal following DX-2300 (R1) was 8.5
